We begin with a simple list: items and their reported melting point.
Structures can show the parent of a compound that is named as a salt.
measurementLabel: melting point

{"compound": "COc1ccc2c(c1OC)[C@]13CCN(C)[C@H](C2)[C@]1(OCc1ccccc1)CCC(=O)C3 (as salt: hydrochloride)", "measurementLabel": "melting point", "result": "140 to 145 °C"}
{"compound": "COc1ccc2c3c1O[C@H]1C(=O)CC[C@@]4(OCCCc5ccccc5)[C@@H](C2)N(CCc2ccccc2)CC[C@]314 (as salt: hydrochloride)", "measurementLabel": "melting point", "result": "128 to 130 °C"}
{"compound": "COc1ccc2c3c1O[C@H]1C(=O)CC[C@@]4(OCCCc5ccccc5)C(C2)N(CC2CCCO2)CC[C@]314 (stereo partly shown) (as salt: hydrochloride)", "measurementLabel": "melting point", "result": "121 to 123 °C"}
{"compound": "CCN1CC[C@]23c4c5ccc(O)c4O[C@H]2C(=O)CC[C@@]3(OCCCc2ccccc2)[C@H]1C5 (as salt: hydrochloride)", "measurementLabel": "melting point", "result": "178 to 180 °C"}
{"compound": "COc1cccc2c1[C@]13CC[N@@H+](CC4CC4)[C@H](C2)[C@]1(OCCCc1ccccc1)CCC(=O)C3.[Cl-]", "measurementLabel": "melting point", "result": "121 to 126 °C"}
{"compound": "COc1ccc2c(c1OC)[C@]13CCN(C)[C@H](C2)[C@]1(OCc1ccccc1)CCC(=O)[C@H]3C", "measurementLabel": "melting point", "result": "166 to 167 °C"}
{"compound": "COc1ccc2c3c1O[C@H]1C(=O)CC[C@@]4(OCCCc5ccccc5)[C@@H](C2)[N@@+](C)(CC2CC2)CC[C@]314.[I-]", "measurementLabel": "melting point", "result": "133 to 136 °C"}
{"compound": "CC#COc1ccc2c3c1O[C@H]1C(=O)CC[C@@]4(OCc5cccc(Cl)c5)C(C2)N(C)CC[C@]314 (as salt: hydrochloride)", "measurementLabel": "melting point", "result": "145 to 150 °C"}
{"compound": "COc1ccc2c3c1O[C@H]1C(=O)CC[C@@]4(OCCCc5ccccc5)[C@@H](C2)N(CC2CC2)CC[C@]314 (as salt: hydrochloride)", "measurementLabel": "melting point", "result": "130 to 133 °C"}
{"compound": "COc1ccc2c(c1OC)[C@]13CCN(C)C(C2)[C@]1(O)CCC(=O)[C@H]3C", "measurementLabel": "melting point", "result": "122 to 124 °C"}
{"compound": "O=C1CC[C@@]2(OCCCc3ccccc3)[C@H]3Cc4ccc(O)c5c4[C@@]2(CCN3CCc2ccccc2)[C@H]1O5 (as salt: hydrochloride)", "measurementLabel": "melting point", "result": "> 218 °C (dec.)"}
{"compound": "COc1ccc2c3c1O[C@H]1C(=O)CC[C@@]4(OCCCc5ccccc5)[C@@H](C2)N(CC2CCC2)CC[C@]314 (as salt: hydrochloride)", "measurementLabel": "melting point", "result": "128 to 133 °C"}
{"compound": "O=C1CC[C@@]2(OCCCc3ccccc3)[C@H]3Cc4ccc(O)c5c4[C@@]2(CCN3CC2CCC2)[C@H]1O5 (as salt: hydrochloride)", "measurementLabel": "melting point", "result": "> 227 °C (dec.)"}

----------
We begin with a simple list: items and their reported melting point.

{"compound": "COc1ccc2c(c1O)[C@]13CCN(C)[C@H](C2)[C@]1(O)CCC(=O)[C@H]3C (stereo in doubt)", "melting point": "> 185 °C (dec.)"}
{"compound": "C[N+]1(C)CC[C@]23c4c5ccc(O)c4O[C@H]2C(=O)CC[C@@]3(OCCCc2ccccc2)[C@H]1C5.[I-] [Compound 38]", "melting point": "164 to 170 °C"}
{"compound": "C[N@+]1(CC2CC2)CC[C@]23c4c5ccc(O)c4O[C@H]2C(=O)CC[C@@]3(OCc2ccc(Cl)cc2)[C@H]1C5.[I-]", "melting point": "214 to 219 °C"}
{"compound": "CCCCOc1cccc2c1[C@]13CC[N@@H+](CC4CC4)C(C2)[C@]1(OCCCc1ccccc1)CCC(=O)C3.[Cl-] (stereo in doubt)", "melting point": "172 to 177 °C"}

----------
Where a name gives a salt, the structure may show the parent alone.
measurementLabel: melting point

{"compound": "CCO[C@@]12CCC(=O)[C@@H](C)[C@@]13CCN(C)[C@@H]2Cc1ccc(OC)c(O)c13", "result": "122 to 129 °C"}
{"compound": "COc1ccc2c(c1O)[C@]13CCN(C)[C@H](C2)[C@]1(OCCCc1ccccc1)CCC(=O)C3", "result": "> 258 °C (dec.)"}
{"compound": "O=C1CC[C@@]2(OCCCc3ccccc3)C3Cc4ccc(O)c5c4[C@@]2(CCN3CC2CCCO2)[C@H]1O5 (stereo partly shown) (as salt: hydrochloride) [Compound 10]", "result": "170 to 172 °C"}
{"compound": "C=CC[N@@+]1(C)CC[C@]23c4c5ccc(O)c4O[C@H]2C(=O)CC[C@@]3(OC)[C@H]1C5.[I-] [Compound 42]", "result": "178 to 181 °C"}

----------
system: mice; test: Hot-plate test (analgesia); type: in vivo, mouse; settings: Mus musculus, sc, subcutaneous application, read-out: ED50 (μg/kg, sc)
Structures can show the parent of a compound that is named as a salt.
We begin with a simple list: items and their reported log10 of ED50.
measurementLabel: log10 of ED50 (log10 of the value in µg/kg)

{"compound": "O=C1CC[C@@]2(OCCCc3ccccc3)[C@H]3Cc4ccc(O)c5c4[C@@]2(CCN3CCc2ccccc2)[C@H]1O5 [Compound 9, hydrochloride]", "log10 of ED50": 1.07}
{"compound": "CN1CC[C@]23c4c5ccc(O)c4O[C@@]2(C)C(=O)CC[C@@]3(OCCCc2ccccc2)[C@H]1C5 [Compound 17b, hydrobromide]", "log10 of ED50": -1.00}
{"compound": "O=C1CC[C@@]2(OCCCc3ccccc3)[C@H]3Cc4ccc(O)c5c4[C@@]2(CCN3CC2CCC2)[C@H]1O5 [Compound 7, hydrochloride]", "log10 of ED50": 0.57}
{"compound": "CN1CC[C@]23c4c5cccc4O[C@H]2C(=O)CC[C@@]3(OCCCc2ccccc2)[C@H]1C5 [Compound 53]", "log10 of ED50": 0.48}
{"compound": "CCCN1CC[C@]23c4c5ccc(O)c4O[C@H]2C(=O)CC[C@@]3(OCCCc2ccccc2)[C@H]1C5 [Compound 11, hydrochloride]", "log10 of ED50": 0.23}
{"compound": "COc1ccc2c3c1O[C@@]1(C)C(=O)CC[C@@]4(OCCCc5ccccc5)[C@@H](C2)N(C)CC[C@]314 [Compound 17a]", "log10 of ED50": 0.41}
{"compound": "C=CCN1CC[C@]23c4c5ccc(O)c4O[C@H]2C(=O)CC[C@@]3(OCCCc2ccccc2)[C@H]1C5 [Compound 6, hydrochloride]", "log10 of ED50": 0.77}
{"compound": "COc1ccc2c3c1O[C@H]1C(=O)CC[C@@]4(OCCCc5ccccc5)[C@@H](C2)N(CCc2ccccc2)CC[C@]314 [Compound 4, hydrochloride]", "log10 of ED50": 1.78}
{"compound": "O=C1CC[C@@]2(OCCCc3ccccc3)C3Cc4ccc(O)c5c4[C@@]2(CCN3CC2CCCO2)[C@H]1O5 (some centres unmarked) [Compound 10, hydrochloride]", "log10 of ED50": 0.11}
{"compound": "COc1ccc2c(c1OC)[C@]13CCN(C)[C@H](C2)[C@]1(OCCCc1ccccc1)CCC(=O)[C@H]3C [Compound 32, hydrochloride]", "log10 of ED50": 1.34}
{"compound": "O=C1CC[C@@]2(OCCCc3ccccc3)[C@H]3Cc4ccc(O)c5c4[C@@]2(CCN3CC2CC2)[C@H]1O5 [Compound 8, hydrochloride]", "log10 of ED50": 0.36}

----------
Counter-ions that a name gives are not always drawn.
measurementLabel: melting point

{"molecule": "COc1ccc2c(c1O)[C@]13CCN(C)[C@H](C2)[C@]1(OCc1ccc2ccccc2c1)CCC(=O)C3 (as salt: hydrochloride)", "measurementLabel": "melting point", "result": "195 to 197 °C"}
{"molecule": "C=CC[N@+]1(C)CC[C@]23c4c5ccc(O)c4OC2(Cc2ccccc2)C(=O)CCC3(OCCCC)C1C5.[I-] (some centres unmarked)", "measurementLabel": "melting point", "result": "200 to 205 °C"}
{"molecule": "C=CC[N@+]1(C)CC[C@]23c4c5ccc(O)c4O[C@H]2C(=O)CC[C@@]3(OC)[C@H]1C5.[I-]", "measurementLabel": "melting point", "result": "> 140 °C"}
{"molecule": "O=C1CC[C@@]2(OCc3ccccc3Cl)[C@H]3Cc4ccc(O)c5c4[C@@]2(CCN3CC2CC2)[C@H]1O5 (as salt: hydrochloride)", "measurementLabel": "melting point", "result": "165 to 168 °C"}
{"molecule": "CCCCO[C@@]12CCC(=O)[C@@H]3Oc4c(O)ccc5c4[C@@]31CC[N+](C)(C)[C@@H]2C5.[I-]", "measurementLabel": "melting point", "result": "180 to 185 °C"}
{"molecule": "COc1ccc2c3c1O[C@@]1(C)C(=O)CC[C@@]4(OCCCc5ccccc5)[C@@H](C2)N(C)CC[C@]314 [Compound 17a]", "measurementLabel": "melting point", "result": "126 to 128 °C"}
{"molecule": "COc1ccc2c(c1OC)[C@]13CCN(C)[C@H](C2)[C@]1(OCc1ccc2ccccc2c1)CCC(=O)C3 (as salt: hydrochloride)", "measurementLabel": "melting point", "result": "165 to 170 °C"}
{"molecule": "O=C1CC[C@@]2(OCCCc3ccccc3)[C@H]3Cc4cccc(O)c4[C@@]2(CC[N@H+]3CC2CC2)C1.[Cl-]", "measurementLabel": "melting point", "result": "> 170 °C (dec.)"}
{"molecule": "O=C1CC[C@@]2(OCCCc3ccccc3)[C@H]3Cc4cccc5c4[C@@]2(CC[N@H+]3CC2CC2)[C@H]1O5.[Cl-]", "measurementLabel": "melting point", "result": "145 to 150 °C"}
{"molecule": "CCCCOC12CCC(=O)C3(Cc4ccccc4)Oc4c(O)ccc5c4[C@@]31CC[N+](C)(C)C2C5.[I-] (some centres unmarked)", "measurementLabel": "melting point", "result": "188 to 195 °C"}
{"molecule": "CC[N@@+]1(C)CC[C@]23c4c5ccc(O)c4O[C@H]2C(=O)CC[C@@]3(OCCCc2ccccc2)[C@H]1C5.[I-]", "measurementLabel": "melting point", "result": "171 to 176 °C"}
{"molecule": "CCCCO[C@@]12CCC(=O)[C@@H]3Oc4c(O)ccc5c4[C@@]31CCN(CC1CC1)[C@@H]2C5 (as salt: hydrochloride)", "measurementLabel": "melting point", "result": "240 °C (dec.)"}
{"molecule": "CN1CC[C@]23c4c5cccc4O[C@H]2C(=O)CC[C@@]3(OCCCc2ccccc2)[C@H]1C5", "measurementLabel": "melting point", "result": "105 to 109 °C"}
{"molecule": "COc1ccc2c(c1O)[C@]13CCN(C)[C@H](C2)[C@]1(OCc1ccccc1)CCC(=O)C3 (as salt: hydrochloride)", "measurementLabel": "melting point", "result": "> 220 °C (dec.)"}
